- Tested on: GDH derived from NBRC32032
- ASSAY INFO: Effects of chemicals on GDH activity
- Type: biochemical, Penicillium italicum
PROPERTY NAME: inhibitory effect (in words)

compound="O=[N+]([O-])[O-].[Ag+] [AgNO3, silver nitrate]" result="strong inhibitory effect"
compound="O=S(=O)([O-])[O-].[Cu+2] [CuSO4, copper sulfate]" result="strong inhibitory effect"
compound="CC(=O)[O-].CC(=O)[O-].[Cd+2] [Cd(OAc)2, cadmium acetate]" result="strong inhibitory effect"

====

- Test system: GDH derived from NBRC6231
- ASSAY INFO: Effects of chemicals on GDH activity
- Assay type: biochemical, Penicillium lilacinoechinulatum
- TEST CONTEXT: 2 mM; inhibited = 10% or more activity lowering, strong = 50% or more; GDH from NBRC6231
PROPERTY NAME: inhibitory effect (in words)

compound="CC(=O)[O-].CC(=O)[O-].[Cd+2] [Cd(OAc)2, cadmium acetate]" result="strong inhibitory effect"
compound="CCN1C(=O)C=CC1=O [N-ethylmaleimide]" result="inhibitory effect"
compound="NO [Hydroxylamine]" result="inhibitory effect"
compound="O=[N+]([O-])[O-].[Ag+] [AgNO3, silver nitrate]" result="strong inhibitory effect"
compound="O=S(=O)([O-])[O-].[Cu+2] [CuSO4, copper sulfate]" result="strong inhibitory effect"
